molecular target: T1, huNav1.7α (human, UniProt Q15858 1-1988); assay: binding FACS, HEKa cells
T1 construct: HEK cells expressing the α subunit alone; also called HEKa; HEK huNav1.7α
Here, each record is paired with measured pEC50 data.
Note on pEC50: it is the negative log10 of concentration, concentration in mol/L.

F010301559 (VHH, vs 387G05: D23A, D54G, D58G) VHH: EVQLVESGGGLVQAGGSLRLSCAASGRILRIGYMRWHRQGAGKQREFVARITDGSATGYADSVKGRFTISRDNAKNTVYLQMNNLNPEDTAVYYCEALVTASVRGGSIHSGTYWGRGTLVTVSS : 9.06

Now consider a different binder.
Give pEC50 for F010301563 (VHH, also called F0103387G05(D23A, D58G); F0103301563) VHH: EVQLVESGGGLVQAGGSLRLSCAASGRILRIGYMRWHRQGAGKQREFVARITDDSATGYADSVKGRFTISRDNAKNTVYLQMNNLNPEDTAVYYCEALVTASVRGGSIHSGTYWGRGTLVTVSS
8.82
